Taken from the kinase profiling compilation of Christmann-Franck et al. (2016).

# TARGET: BTK (human) (UniProt Q06187)
# Sequence (Q06187 whole entry, looked up): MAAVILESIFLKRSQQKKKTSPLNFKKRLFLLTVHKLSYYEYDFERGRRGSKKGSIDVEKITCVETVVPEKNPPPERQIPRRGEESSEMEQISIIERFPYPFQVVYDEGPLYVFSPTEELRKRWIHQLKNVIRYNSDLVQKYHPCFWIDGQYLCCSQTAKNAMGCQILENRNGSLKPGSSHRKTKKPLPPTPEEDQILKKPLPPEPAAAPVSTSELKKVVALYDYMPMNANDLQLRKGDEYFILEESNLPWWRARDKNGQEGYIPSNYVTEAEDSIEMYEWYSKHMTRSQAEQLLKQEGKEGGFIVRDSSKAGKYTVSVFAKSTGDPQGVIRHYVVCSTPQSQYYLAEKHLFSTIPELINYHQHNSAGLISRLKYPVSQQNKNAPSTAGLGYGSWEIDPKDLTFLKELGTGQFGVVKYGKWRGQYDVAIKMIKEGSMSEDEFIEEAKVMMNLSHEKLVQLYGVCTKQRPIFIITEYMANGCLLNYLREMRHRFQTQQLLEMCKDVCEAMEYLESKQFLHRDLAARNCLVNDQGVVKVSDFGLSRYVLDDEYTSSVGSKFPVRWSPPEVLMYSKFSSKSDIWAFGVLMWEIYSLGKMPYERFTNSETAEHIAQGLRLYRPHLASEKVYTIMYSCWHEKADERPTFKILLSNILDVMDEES
# PROTOCOL TEXT: KINOMEscan competition binding
# CONDITION SUMMARY: compound 10.0 µM
MEASURE NAME: kinase still bound, per cent of control (%)
Enter your answer as a number in %; do not include the unit.

// below: answered molecules
>>> endpoint_result("N#Cc1cc(-c2ccnc(Nc3ccc(-n4cnc(-c5cccnc5)n4)cc3)n2)cc(N2CCOCC2)c1")
74
>>> endpoint_result("COc1cc(N2CCC(C(N)=O)CC2)ccc1Nc1nc(N)c(Cl)c(Nc2ccccc2S(=O)(=O)C(C)C)n1")
26
>>> endpoint_result("CCN1CCN(Cc2ccc(NC(=O)c3ccc(C)c(/C=C/c4cnc5[nH]ccc5c4OC)c3)cc2C(F)(F)F)CC1")
0.3

Tell me the measured kinase still bound, per cent of control of CC1=C(C(=O)Nc2cc3cn[nH]c3cc2F)C(c2ccc(C(F)(F)F)cc2)CC(=O)N1 (centres undefined) , please.
14

###

# TARGET: TNK1 (human) (UniProt Q13470)
# Sequence (Q13470 whole entry, looked up): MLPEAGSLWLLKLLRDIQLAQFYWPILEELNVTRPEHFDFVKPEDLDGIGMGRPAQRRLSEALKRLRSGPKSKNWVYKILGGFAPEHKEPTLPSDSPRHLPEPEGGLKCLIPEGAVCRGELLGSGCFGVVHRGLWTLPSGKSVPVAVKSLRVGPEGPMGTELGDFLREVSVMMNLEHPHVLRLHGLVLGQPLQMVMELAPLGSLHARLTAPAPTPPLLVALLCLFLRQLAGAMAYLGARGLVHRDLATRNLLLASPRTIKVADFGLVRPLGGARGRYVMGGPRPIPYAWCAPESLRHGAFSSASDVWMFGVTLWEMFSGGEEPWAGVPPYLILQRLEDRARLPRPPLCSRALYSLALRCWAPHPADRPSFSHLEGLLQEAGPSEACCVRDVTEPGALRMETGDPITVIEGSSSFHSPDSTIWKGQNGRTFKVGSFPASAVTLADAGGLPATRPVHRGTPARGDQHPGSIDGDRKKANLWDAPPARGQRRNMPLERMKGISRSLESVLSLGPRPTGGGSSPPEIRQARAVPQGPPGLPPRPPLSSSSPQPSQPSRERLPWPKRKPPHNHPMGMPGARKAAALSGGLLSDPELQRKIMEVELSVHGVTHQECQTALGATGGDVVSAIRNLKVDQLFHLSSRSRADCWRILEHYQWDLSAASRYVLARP
# PROTOCOL TEXT: KINOMEscan competition binding
# CONDITION SUMMARY: compound 10.0 µM
MEASURE NAME: kinase still bound, per cent of control (%)
Output spec: scalar in %, unitless text.

>>> endpoint_result("COc1cc2c(Nc3ccc(NC(=O)c4ccccc4)cc3)ncnc2cc1OCCCN1CCOCC1")
69
>>> endpoint_result("CCc1nc(-c2cccc(C)c2)c(-c2ccnc(NC(=O)c3ccccc3)c2)s1")
88
>>> endpoint_result("CCCS(=O)(=O)Nc1ccc(F)c(C(=O)c2c[nH]c3ncc(Cl)cc23)c1F")
96
>>> endpoint_result("O=c1[nH]c2ccccc2n1C1CCN(Cc2ccc(-c3nc4cc5[nH]cnc5cc4nc3-c3ccccc3)cc2)CC1")
91
>>> endpoint_result("Cc1cn(-c2cc(C(=O)Nc3ccc(C)c(NC(=O)c4ccno4)c3)cc(C(F)(F)F)c2)cn1")
100
>>> endpoint_result("COc1cc(C)c(Sc2cnc(NC(=O)c3ccc(CNC(C)C(C)C)cc3)s2)cc1C(=O)N1CCN(C(C)=O)CC1 (stereo not drawn)")
100
>>> endpoint_result("CCN1CCN(Cc2ccc(NC(=O)c3ccc(C)c(/C=C/c4cnc5[nH]ccc5c4OC)c3)cc2C(F)(F)F)CC1")
1.4
>>> endpoint_result("CC(=O)c1c(C)c2cnc(Nc3ccc(N4CCNCC4)cn3)nc2n(C2CCCC2)c1=O")
61

Requested field: kinase still bound, per cent of control. Item: CC1=C(C(=O)Nc2cc3cn[nH]c3cc2F)C(c2ccc(C(F)(F)F)cc2)CC(=O)N1 (stereo not drawn)
33

Moving on to the next compound: COc1ccc(N(C(=O)Oc2cc(C(=O)Nc3cccc(C(F)(F)F)c3)ccc2C)c2ccnc(Nc3ccc(N4CCN(C)CC4)cc3)n2)c(OC)c1
1.6

Further, for CCN(CCO)CCCOc1ccc2c(Nc3cc(CC(=O)Nc4cccc(F)c4)[nH]n3)ncnc2c1 ?
86

Item: N#Cc1cc(-c2ccnc(Nc3ccc(-n4cnc(-c5cccnc5)n4)cc3)n2)cc(N2CCOCC2)c1
25

Next entry: COc1cc2ncnc(Nc3cccc(Cl)c3)c2cc1OC
26

Another compound to look at: C=CC(=O)Nc1ccc(C(=O)c2sc(Nc3ccc(N4CCN(C)CC4)cc3OC)nc2N)cc1
22
